Measured EC50, listed per entry for reference.
molecular target: A/mallard/Eng/727/06 (H2N3) inactivated viral preparation (Influenza A virus A/mallard/Eng/727/06 (H2N3)); experiment: ELISA, inactivated virus
recorded.endpoint: EC50 (µg/mL)

binder="R2b-E8 (VHH) VHH: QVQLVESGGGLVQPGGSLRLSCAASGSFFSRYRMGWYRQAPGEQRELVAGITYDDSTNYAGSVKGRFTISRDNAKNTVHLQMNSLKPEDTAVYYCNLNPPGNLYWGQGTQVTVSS" recorded_endpoint=EC50 units_text=µg/mL reported_result=0.002
binder="R1a-C5 (VHH) VHH: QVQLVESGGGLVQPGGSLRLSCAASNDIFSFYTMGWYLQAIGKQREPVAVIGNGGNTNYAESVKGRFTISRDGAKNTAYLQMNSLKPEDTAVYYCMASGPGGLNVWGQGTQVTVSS" recorded_endpoint=EC50 units_text=µg/mL reported_result=0.06
binder="R1a-B6 (VHH) VHH: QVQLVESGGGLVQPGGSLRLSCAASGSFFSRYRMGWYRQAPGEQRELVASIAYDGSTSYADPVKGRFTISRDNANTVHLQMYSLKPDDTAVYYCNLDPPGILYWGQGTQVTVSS" recorded_endpoint=EC50 units_text=µg/mL reported_result=0.102
binder="R2a-G8 (VHH) VHH: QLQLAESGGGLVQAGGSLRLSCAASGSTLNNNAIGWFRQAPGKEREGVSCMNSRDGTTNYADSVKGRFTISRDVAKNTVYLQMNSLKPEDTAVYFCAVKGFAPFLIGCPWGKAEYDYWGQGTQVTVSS" recorded_endpoint=EC50 units_text=µg/mL reported_result=2.5
binder="R1a-A5 (VHH) VHH: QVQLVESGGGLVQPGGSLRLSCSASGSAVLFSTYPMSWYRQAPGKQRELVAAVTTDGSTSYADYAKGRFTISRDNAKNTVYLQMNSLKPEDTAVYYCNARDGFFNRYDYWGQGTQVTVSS" recorded_endpoint=EC50 units_text=µg/mL reported_result=0.006
binder="R2b-D9 (VHH) VHH: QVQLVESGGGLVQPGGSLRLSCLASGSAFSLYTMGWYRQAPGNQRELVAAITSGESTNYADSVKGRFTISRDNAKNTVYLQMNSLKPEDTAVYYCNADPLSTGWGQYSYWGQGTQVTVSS" recorded_endpoint=EC50 units_text=µg/mL reported_result=0.06
